Molecular target: p300 HAT domain (residues 1287-1666) (Homo sapiens (Human))
Sequence (Q09472 1287-1666): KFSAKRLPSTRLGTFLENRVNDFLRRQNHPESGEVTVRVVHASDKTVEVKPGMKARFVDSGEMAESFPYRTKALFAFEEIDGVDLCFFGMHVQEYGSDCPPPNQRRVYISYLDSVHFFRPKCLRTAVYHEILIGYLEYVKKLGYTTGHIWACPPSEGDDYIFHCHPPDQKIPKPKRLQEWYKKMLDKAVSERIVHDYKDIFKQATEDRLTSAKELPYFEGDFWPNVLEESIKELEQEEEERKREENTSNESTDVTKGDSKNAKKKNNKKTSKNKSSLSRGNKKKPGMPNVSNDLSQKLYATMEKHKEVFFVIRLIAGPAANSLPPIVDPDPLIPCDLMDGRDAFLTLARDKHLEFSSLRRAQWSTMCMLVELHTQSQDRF
Test: p300 HAT SPA assay (scintillation proximity assay, acetylation of biotinylated H3(1-21) peptide)
Type: biochemical
Conditions: p300 HAT domain; average of at least 2 replicate titrations; read-out: P300 HAT SPA IC50
ENDPOINT_LABEL: IC50 (µM)

Would you please look over these solved cases?
N#Cc1ccc(CCNC(C(=O)c2c[nH]c3cc(C(=O)NC4CN(CC(F)(F)F)C4)ccc23)c2ccccc2)cc1 (single isomer, unassigned) [162 Isomer 1]    4.86
CNC(=O)c1ccc2c(C(=O)C(NCCc3ccc(C#N)cc3)c3ccccc3)c[nH]c2n1 (single isomer, unassigned) [67 Isomer 1]    2.36

I: CN(C)C(=O)c1ccc2c(C(=O)C(NCCc3ccc(C#N)cc3)c3ccccc3)c[nH]c2c1 (single isomer, unassigned) [172 Isomer 1]
II: CN1CCC(c2ccc3c(C(=O)C(NCCc4ccc(C(N)=O)cc4)c4ccccc4)c[nH]c3c2)CC1 (single isomer, unassigned) [178 Isomer 2]
Could you determine which record has the numerically smaller IC50? Candidates: I and II Reply briefly: the label of your chosen item.
II

P: CN1CCN(c2ccc3c(C(=O)C(NCCc4ccc(F)cc4)c4ccccc4)c[nH]c3c2)CC1 (single isomer, unassigned) [123 Isomer 1]
Q: CCNC(=O)c1ccc2c(C(=O)C(NCC(C)c3ccc(C#N)cc3)c3ccccc3)c[nH]c2c1 (single isomer, unassigned) [75 Isomer 4]
Given the listed records, identify the one among P and Q with higher IC50. Provide the label of your selected option as the answer.
P
